# credit: ChEMBL document CHEMBL2218924

- assay.target: RAF proto-oncogene serine/threonine-protein kinase (Homo sapiens) (UniProt P04049)
- Sequence (P04049 whole entry): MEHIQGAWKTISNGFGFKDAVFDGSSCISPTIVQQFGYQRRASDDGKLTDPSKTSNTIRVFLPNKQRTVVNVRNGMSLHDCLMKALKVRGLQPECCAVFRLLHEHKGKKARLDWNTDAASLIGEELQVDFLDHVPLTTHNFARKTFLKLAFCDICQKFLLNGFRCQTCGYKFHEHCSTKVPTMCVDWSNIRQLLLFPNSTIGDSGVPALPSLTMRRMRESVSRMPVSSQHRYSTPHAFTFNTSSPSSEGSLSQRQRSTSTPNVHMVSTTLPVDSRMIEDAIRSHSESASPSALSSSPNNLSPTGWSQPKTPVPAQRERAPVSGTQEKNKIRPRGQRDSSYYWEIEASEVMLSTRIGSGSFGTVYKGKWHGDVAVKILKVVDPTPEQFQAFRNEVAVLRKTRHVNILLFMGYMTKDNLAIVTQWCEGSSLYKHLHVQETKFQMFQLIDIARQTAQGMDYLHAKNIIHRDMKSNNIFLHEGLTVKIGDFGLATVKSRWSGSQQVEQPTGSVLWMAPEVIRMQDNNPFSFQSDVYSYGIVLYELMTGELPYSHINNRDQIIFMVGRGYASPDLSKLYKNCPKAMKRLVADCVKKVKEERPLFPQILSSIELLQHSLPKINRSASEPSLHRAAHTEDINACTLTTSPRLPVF
- study.conditions: at 1 µM
residual activity overview

>  <compound>
O=C(Nc1ccc(Cl)cc1)c1ccccc1NCc1ccncc1

>  <assay.target>
RAF proto-oncogene serine/threonine-protein kinase (Homo sapiens) (UniProt P04049)

>  <residual activity (%)>
41

$$$$
>  <compound>
O=C1NC(=O)C(c2cn(CCCO)c3ncccc23)=C1c1cnccn1

>  <assay.target>
RAF proto-oncogene serine/threonine-protein kinase (Homo sapiens) (UniProt P04049)

>  <residual activity (%)>
91

$$$$
>  <compound>
CC(C)N(CCC(=O)c1ccc2ccccc2c1)Cc1ccccc1

>  <assay.target>
RAF proto-oncogene serine/threonine-protein kinase (Homo sapiens) (UniProt P04049)

>  <residual activity (%)>
75

$$$$
>  <compound>
O=c1c(-c2ccc(F)cc2)c(-c2ccncc2)[nH]n1-c1ccc(Cl)cc1

>  <assay.target>
RAF proto-oncogene serine/threonine-protein kinase (Homo sapiens) (UniProt P04049)

>  <residual activity (%)>
33

$$$$
>  <compound>
O=C1Nc2ccc(Cl)cc2/C1=C/c1cc(Cl)c(O)c(Cl)c1

>  <assay.target>
RAF proto-oncogene serine/threonine-protein kinase (Homo sapiens) (UniProt P04049)

>  <residual activity (%)>
2

$$$$
>  <compound>
O=C1NC(=O)c2c1c1c3ccccc3[nH]c1n1cncc21

>  <assay.target>
RAF proto-oncogene serine/threonine-protein kinase (Homo sapiens) (UniProt P04049)

>  <residual activity (%)>
68

$$$$
>  <compound>
CCOc1nc(NC(=O)Cc2cc(OC)ccc2OC)cc(N)c1C#N

>  <assay.target>
RAF proto-oncogene serine/threonine-protein kinase (Homo sapiens) (UniProt P04049)

>  <residual activity (%)>
74

$$$$
>  <compound>
O=C(O)/C=C/c1cc(Br)c(Br)c(Br)c1Br

>  <assay.target>
RAF proto-oncogene serine/threonine-protein kinase (Homo sapiens) (UniProt P04049)

>  <residual activity (%)>
81

$$$$
>  <compound>
O=c1cc(N2CCOCC2)oc2c1ccc1ccccc12

>  <assay.target>
RAF proto-oncogene serine/threonine-protein kinase (Homo sapiens) (UniProt P04049)

>  <residual activity (%)>
83

$$$$
>  <compound>
Nc1nc(Nc2ccc(S(N)(=O)=O)cc2)nn1C(=O)c1c(F)cccc1F

>  <assay.target>
RAF proto-oncogene serine/threonine-protein kinase (Homo sapiens) (UniProt P04049)

>  <residual activity (%)>
79

$$$$
>  <compound>
N#C/C(=C\c1ccc(O)c(O)c1)C(=O)NCc1ccccc1

>  <assay.target>
RAF proto-oncogene serine/threonine-protein kinase (Homo sapiens) (UniProt P04049)

>  <residual activity (%)>
82

$$$$
>  <compound>
COc1cc2nccc(Oc3ccc(NC(=O)Nc4cc(C)on4)c(Cl)c3)c2cc1OC

>  <assay.target>
RAF proto-oncogene serine/threonine-protein kinase (Homo sapiens) (UniProt P04049)

>  <residual activity (%)>
0

$$$$
>  <compound>
CCOC(=O)c1c(C)[nH]c(/C=C2\C(=O)Nc3ccccc32)c1C

>  <assay.target>
RAF proto-oncogene serine/threonine-protein kinase (Homo sapiens) (UniProt P04049)

>  <residual activity (%)>
100

$$$$
>  <compound>
Nc1nccc(-c2c(-c3ccc(F)cc3)ncn2C2CCNCC2)n1

>  <assay.target>
RAF proto-oncogene serine/threonine-protein kinase (Homo sapiens) (UniProt P04049)

>  <residual activity (%)>
64

$$$$
>  <compound>
COc1ccc2c(c1)c(C1=C(c3c[nH]c4ccccc34)C(=O)NC1=O)cn2CCCN(C)C

>  <assay.target>
RAF proto-oncogene serine/threonine-protein kinase (Homo sapiens) (UniProt P04049)

>  <residual activity (%)>
81

$$$$
>  <compound>
Cn1sc(=O)n(Cc2ccccc2)c1=O

>  <assay.target>
RAF proto-oncogene serine/threonine-protein kinase (Homo sapiens) (UniProt P04049)

>  <residual activity (%)>
71

$$$$
>  <compound>
CSc1nc(-c2ccc(F)cc2)c(-c2ccnc(NC(C)c3ccccc3)c2)[nH]1 (configuration not stated)

>  <assay.target>
RAF proto-oncogene serine/threonine-protein kinase (Homo sapiens) (UniProt P04049)

>  <residual activity (%)>
89

$$$$
>  <compound>
O=C1NC(=O)C(c2cn(CCCn3ccnc3)c3ccccc23)=C1Nc1ccccc1

>  <assay.target>
RAF proto-oncogene serine/threonine-protein kinase (Homo sapiens) (UniProt P04049)

>  <residual activity (%)>
78

$$$$
>  <compound>
O=c1cc(N2CCOCC2)oc2c(-c3ccccc3)cccc12

>  <assay.target>
RAF proto-oncogene serine/threonine-protein kinase (Homo sapiens) (UniProt P04049)

>  <residual activity (%)>
68

$$$$
>  <compound>
CC(C)(C)n1nc(Cc2cccc3ccccc23)c2c(N)ncnc21

>  <assay.target>
RAF proto-oncogene serine/threonine-protein kinase (Homo sapiens) (UniProt P04049)

>  <residual activity (%)>
27

$$$$
>  <compound>
O=C(NC(NC(=S)Nc1ccc(F)c([N+](=O)[O-])c1)C(Cl)(Cl)Cl)C(c1ccccc1)c1ccccc1 (configuration not stated)

>  <assay.target>
RAF proto-oncogene serine/threonine-protein kinase (Homo sapiens) (UniProt P04049)

>  <residual activity (%)>
92

$$$$
>  <compound>
CC(C)c1nn(-c2c(Cl)cccc2Cl)c2nc(Cc3ccc(OCCO)cc3)[nH]c(=O)c12

>  <assay.target>
RAF proto-oncogene serine/threonine-protein kinase (Homo sapiens) (UniProt P04049)

>  <residual activity (%)>
79

$$$$
